molecular target: H1 (h) (Homo sapiens, UniProt P35367)
Sequence (P35367 whole entry): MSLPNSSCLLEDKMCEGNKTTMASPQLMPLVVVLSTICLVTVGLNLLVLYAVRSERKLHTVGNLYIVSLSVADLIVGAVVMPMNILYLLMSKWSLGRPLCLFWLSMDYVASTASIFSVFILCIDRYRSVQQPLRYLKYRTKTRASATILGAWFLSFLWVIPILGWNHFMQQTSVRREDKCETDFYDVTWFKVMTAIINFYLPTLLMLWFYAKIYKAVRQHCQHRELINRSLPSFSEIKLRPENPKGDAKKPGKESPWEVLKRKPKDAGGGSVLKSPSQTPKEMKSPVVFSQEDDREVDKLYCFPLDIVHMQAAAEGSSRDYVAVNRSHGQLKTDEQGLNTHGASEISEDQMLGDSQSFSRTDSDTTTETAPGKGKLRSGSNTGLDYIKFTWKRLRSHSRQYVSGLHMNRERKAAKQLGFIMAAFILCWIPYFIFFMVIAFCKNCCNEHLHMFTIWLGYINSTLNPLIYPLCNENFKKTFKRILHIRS
Measured property: pIC50
Keep it numeric: pIC50 is minus log10 of the concentration in mol/L.

Give the reported pIC50 for CNCC(C)CN1c2ccccc2Sc2ccc(C#N)cc21 (stereo not shown) (system: H1 (h) (Homo sapiens, UniProt P35367)).
7.66

###

Molecular target: UniProtKB P08908
Sequence (P08908 1-422): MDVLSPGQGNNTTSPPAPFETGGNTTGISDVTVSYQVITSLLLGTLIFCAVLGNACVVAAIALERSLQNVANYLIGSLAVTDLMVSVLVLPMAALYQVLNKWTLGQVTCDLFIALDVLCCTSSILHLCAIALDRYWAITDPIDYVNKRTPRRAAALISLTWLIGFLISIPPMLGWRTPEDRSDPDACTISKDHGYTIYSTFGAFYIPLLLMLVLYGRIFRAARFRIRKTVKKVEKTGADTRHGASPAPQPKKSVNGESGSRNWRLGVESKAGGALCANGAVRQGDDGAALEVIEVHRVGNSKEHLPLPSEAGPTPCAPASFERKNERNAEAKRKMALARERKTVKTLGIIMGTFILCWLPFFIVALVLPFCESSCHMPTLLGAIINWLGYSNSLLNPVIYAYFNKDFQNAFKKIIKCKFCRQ
Measured property: pKi
Keep it numeric: pKi is minus log10 of the concentration in mol/L.

May I ask what pKi has been recorded for CNCC(C)CN1c2ccccc2Sc2ccc(C#N)cc21 (stereo not shown) ?
6.74
